Assay: small-molecule binders of probe aInhba, primary screen, biochemical, small-molecule microarray, 635/667 nm fluorescence (AID 1148);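 also: score merges 667nm spot fluorescence with signal-to-noise for antibody binding to printed compounds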
Details: higher = more signal
Is composite z-score at least 0.05? Then Fulfilled. If not, Not fulfilled.

Known results for molecules:
molecule: CN1C(=O)C2C(C1=O)C1C=C(CCCO)C2C(C2CC2)N1C (stereo not drawn)
group: Fulfilled
--
molecule: COC(=O)[C@@]1(Cc2ccc(F)cc2)[C@H]2c3cc(C(=O)N(C)C)n(Cc4ccc(C(F)(F)F)nc4)c3C[C@H]2CN1C(=O)c1ccccc1
group: Fulfilled

[in] API: above_or_equal(metric=composite z-score, cutoff=0.05) for item C=CCNC(=O)[C@H]1[C@@H]2C(=O)O[C@@H](c3ccccc3)[C@@H](c3ccccc3)N2[C@@H](c2ccc(O)cc2)[C@]12C(=O)N(C(=O)OCCOC)c1ccc(C#Cc3ccc(OC)cc3)cc12
[out] Fulfilled

[in] What do you have for CN(C)CCCC[C@@H]1NC(=O)[C@H]2C[C@@H](C(=O)NCCCCCCNC(=O)CS)[C@@H](c3cccc(OCCO)c3)N2C1=O ?
[out] Not fulfilled

[in] What do you have for COC(=O)C(CC#Cc1ccc2c(c1)[C@]1(C(=O)N2)[C@H](C(=O)N2CCCCCCC2)[C@H]2C(=O)O[C@H](c3ccccc3)[C@H](c3ccccc3)N2[C@@H]1c1ccc(OCCO)cc1)C(=O)OC ?
[out] Fulfilled

[in] What do you have for COC(=O)[C@@]1(Cc2ccccc2)[C@H]2c3cc(C(=O)N(C)C)n(CCF)c3C[C@H]2CN1C(=O)c1ccccc1 ?
[out] Fulfilled

[in] What do you have for COC(=O)[C@@]1(Cc2ccc(F)cc2)[C@H]2c3cc(C(=O)N(C)C)n(Cc4ccsc4Br)c3C[C@H]2CN1C(=O)c1ccccc1 ?
[out] Fulfilled

[in] What do you have for C=CCNC(=O)[C@H]1[C@@H]2C(=O)O[C@@H](c3ccccc3)[C@@H](c3ccccc3)N2[C@@H](c2ccc(O)cc2)[C@]12C(=O)Nc1ccc(C#CCC(C(=O)OC)C(=O)OC)cc12 ?
[out] Not fulfilled

###

Target: Fibroblast growth factor 2 (Homo sapiens) (UniProt P09038)
Sequence (P09038 whole entry, looked up): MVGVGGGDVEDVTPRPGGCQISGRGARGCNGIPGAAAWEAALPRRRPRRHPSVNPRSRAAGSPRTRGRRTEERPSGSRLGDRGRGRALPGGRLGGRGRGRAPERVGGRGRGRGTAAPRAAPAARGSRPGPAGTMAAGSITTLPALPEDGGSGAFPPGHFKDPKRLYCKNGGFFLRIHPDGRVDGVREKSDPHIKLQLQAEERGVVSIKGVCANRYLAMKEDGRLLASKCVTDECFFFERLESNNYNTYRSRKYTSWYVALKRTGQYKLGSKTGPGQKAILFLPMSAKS
Assay: FGF2 binders on small-molecule microarrays, primary screen, biochemical, small-molecule microarray, 635/667 nm fluorescence (AID 1133)
Conditions: small-molecule microarray binding, FGF2, fluorescence 635/667; higher = more signal
Is composite z-score at least 0.3? Then True. If not, False.

Known results for compounds:
compound: C=CCOC(=O)[C@@H]1[C@H]2C(=O)O[C@H](c3ccccc3)[C@H](c3ccccc3)N2[C@H](c2ccc(OCCOC(=O)[C@@H]3C[C@@H]4C(=O)N[C@@H](CC(C)C)C(=O)N4[C@@H]3c3ccc(O)cc3)cc2)[C@@]12C(=O)Nc1ccc(I)cc12
group: True
//
compound: COc1ccc(NN2C(C(O)c3ccccc3)C=CC3C(=O)N(C4CCCCC4)C(=O)C32)cc1 (stereo not given)
group: False
//
compound: CC(C)Cc1ccc(CN2CC[C@@H](NC(=O)c3ccccc3)C2)cc1
group: False
//
compound: COc1ccc(C(O)C2C=CC3C(=O)N(C)C(=O)C3N2Nc2ccccc2)cc1 (stereo not given)
group: False
//
compound: Cc1ccc(S[C@]2(C(=O)NC(C)C)CC(=O)N(Cc3ccccc3)[C@@H]2c2ccc(CO)cc2)cc1
group: False

[in] API: above_or_equal(metric=composite z-score, cutoff=0.3) for item CCCCN1CC=CC23O[C@@H]4/C=C\CCC(C)OC(=O)C4[C@H]2C(=O)N(CCO)[C@@H]3C1=O (stereo not given in full)
[out] False

[in] What do you have for C=CCOC(=O)[C@H]1[C@@H]2C(=O)O[C@@H](c3ccccc3)[C@@H](c3ccccc3)N2[C@@H](c2ccc(OCCOC(=O)[C@H]3C[C@H]4C(=O)NCC(=O)N4[C@H]3c3cccc(OCCO)c3)cc2)[C@]12C(=O)Nc1ccc(I)cc12 ?
[out] True

[in] What do you have for C=C(/C=C\CNS(=O)(=O)c1ccc(C)cc1)[C@H](O)[C@H]1CCCN1S(=O)(=O)c1ccccc1[N+](=O)[O-] ?
[out] False

[in] What do you have for [N-]=[N+]=Nc1ccccc1C[C@]1(C(N)=O)COC(c2ccc(OCCCO)cc2)=N1 ?
[out] False

[in] What do you have for CC(C)(C)OC(=O)CC[C@]1(C(N)=O)N=C(c2ccc(OCCCO)cc2)O[C@H]1c1ccccc1N=[N+]=[N-] ?
[out] True

[in] What do you have for C=C(C(=O)CC[C@@H](OC(=O)c1ccccc1-c1ccccc1C(=O)O)c1cccc(OCCO)c1)C(C)C ?
[out] True

[in] What do you have for COC(=O)[C@@]1(Cc2ccccc2)[C@H]2c3cc(C(=O)N(C)C)n(CCF)c3C[C@H]2CN1C(=O)c1ccccc1 ?
[out] False

###

Experiment: small-molecule binders of probe aNOTCH2, primary screen, biochemical, small-molecule microarray, 635/667 nm fluorescence (AID 1121);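 also: score merges feature fluorescence read at 667 nm with its signal to noise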
Settings: higher = more signal
assay-readout: composite z-score
Reply briefly: the number, and no unit.

Observe how each entry below is paired with its result.
compound: O=C1c2ccccc2[C@](Cc2ccccc2I)(C(=O)NCCN2CCOCC2)[C@H](c2ccc(CO)cc2)N1Cc1ccccc1C(F)(F)F
numeric-result: -0.0771

compound: CC1(C)OB(/C=C\CC(OC(=O)c2ccncc2)c2ccccc2)OC1(C)C (stereo not drawn)
numeric-result: -0.0464

compound: CO[C@H]1O[C@H](CO)[C@@H](OC(=O)Nc2cccc(F)c2)[C@H](OC(=O)c2cc3ccccc3[nH]2)[C@H]1OC(=O)c1cc2ccccc2[nH]1
numeric-result: -0.132

compound: CC(CO)N1C(=O)[C@@H]2[C@H]3C(=O)OCC=C[C@H]3OC23C=CCN(c2ccc4ccccc4c2)C(=O)[C@@H]13 (stereo partly drawn)
numeric-result: -0.132

compound: CN(C)C(=O)[C@]1(CCS(=O)(=O)c2ccccc2)N=C(c2ccc(OCCCO)cc2)O[C@@H]1c1ccccc1CN=[N+]=[N-]
numeric-result: 0.139

[in] # query: composite z-score of entry O=C1C2C=CC(C(O)C3CC=CCC3)N(Nc3ccc([N+](=O)[O-])cc3)C2C(=O)N1c1ccccc1 (stereo not drawn)
[out] 0.326

[in] What do you have for COc1c(C)cc(-c2nc(-c3ccccc3)c3c(c2C)CO[Si]3(C(C)C)C(C)C)cc1C ?
[out] -0.0048

[in] What do you have for [N-]=[N+]=Nc1ccccc1C[C@]1(C(N)=O)COC(c2ccc(OCCCO)cc2)=N1 ?
[out] 0.105

###

Recorded composite z-score by entry
Target: Fibroblast growth factor 2 (Homo sapiens) (UniProt P09038)
Experiment: FGF2 binders on small-molecule microarrays, primary screen, biochemical, small-molecule microarray, 635/667 nm fluorescence (AID 1133)
Conditions: small-molecule microarray binding, FGF2, fluorescence 635/667; higher = more signal

molecule: CC(C)C(=C=CC[C@H](O)c1cccc(OCCO)c1)C[C@H](O)c1ccccn1
composite z-score: 0.236
--
molecule: O=C/C=C/c1ccc(-c2ccccc2)cc1
composite z-score: -0.377
--
molecule: C=CCOC(=O)[C@H]1[C@@H]2C(=O)O[C@@H](c3ccccc3)[C@@H](c3ccccc3)N2[C@@H](c2ccc(OCCOC(=O)[C@@H]3C[C@@H]4C(=O)N[C@@H](Cc5ccccc5)C(=O)N4[C@@H]3c3ccc(O)cc3)cc2)[C@]12C(=O)Nc1ccc(I)cc12
composite z-score: 1.25
--
molecule: CC1CC/C=C\[C@H]2OC34C=CCN(C(C)C)C(=O)[C@H]3N(C(C)CO)C(=O)[C@@H]4C2C(=O)O1 (stereo not given in full)
composite z-score: -0.455
--
molecule: [N-]=[N+]=Nc1ccccc1C[C@]1(C(=O)N2CCCCC2)N=C(c2ccc(OCCCO)cc2)O[C@H]1c1ccccc1
composite z-score: 1.38

[in] Form field: composite z-score recorded for C=C(C(=O)CC[C@H](OC(=O)c1ccccc1-c1ccccc1C(=O)O)c1ccc(OCCO)cc1)C(C)C with Fibroblast growth factor 2 (Homo sapiens) (UniProt P09038) (enter value)
[out] 0.726

[in] What do you have for C=CCNC(=O)[C@@H]1[C@H]2C(=O)O[C@H](c3ccccc3)[C@H](c3ccccc3)N2[C@H](c2ccc(O)cc2)[C@@]12C(=O)N(C(=O)OCCOC)c1ccc(C#CCC(C(=O)OC)C(=O)OC)cc12 ?
[out] 0.722

[in] What do you have for Cc1ccc(N2C(=O)c3ccccc3[C@@H](C(=O)NCCN3CCOCC3)[C@@H]2c2ccc(CO)cc2)nc1 ?
[out] -1.08

[in] What do you have for COc1ccc([Si](C)(C)[C@H]2[C@H](CC(=O)N(CCO)Cc3ccccc3)O[C@@]3(C(=O)N(Cc4cccc(N5CCCCC5=O)c4)c4ccccc43)[C@@H]2C)cc1 ?
[out] 1.23

[in] What do you have for COc1ccc([Si](C)(C)[C@H]2[C@H](CC(=O)N3CCC[C@H]3CO)O[C@@]3(C(=O)N(C)c4c(Br)cc(C)cc43)[C@@H]2C)cc1 ?
[out] 1.86

[in] What do you have for Cc1ccc(S[C@]2(C(=O)NCc3ccccc3)CC(=O)N(Cc3ccccc3C(F)(F)F)[C@@H]2c2ccc(CO)cc2I)cc1 ?
[out] -0.402

[in] What do you have for Cc1ccc(S[C@]2(C(=O)NCCN3CCOCC3)CC(=O)N(C(C)C)[C@@H]2c2ccc(CO)cc2I)cc1 ?
[out] -0.706

[in] What do you have for O=C1NC(=O)C2C1C=CC(C(O)C1CCCCC1)N2Nc1ccccn1 (stereo not given) ?
[out] 0.205

[in] What do you have for COc1c(C)cc(-c2nc(-c3ccccc3)c3c(c2C)CO[Si]3(C(C)C)C(C)C)cc1C ?
[out] 0.376

[in] What do you have for COc1cc(CO)cc(I)c1O[C@H]1C=C(C(=O)NCCO)C[C@@H](N(CCN2CCOCC2)C(=O)C2CCCO2)[C@@H]1O (stereo not given in full) ?
[out] 0.144

Cited source for all entries: PubChem BioAssay
